- Assayed System: UniProt:P46002
- Sequence (P46002 whole entry): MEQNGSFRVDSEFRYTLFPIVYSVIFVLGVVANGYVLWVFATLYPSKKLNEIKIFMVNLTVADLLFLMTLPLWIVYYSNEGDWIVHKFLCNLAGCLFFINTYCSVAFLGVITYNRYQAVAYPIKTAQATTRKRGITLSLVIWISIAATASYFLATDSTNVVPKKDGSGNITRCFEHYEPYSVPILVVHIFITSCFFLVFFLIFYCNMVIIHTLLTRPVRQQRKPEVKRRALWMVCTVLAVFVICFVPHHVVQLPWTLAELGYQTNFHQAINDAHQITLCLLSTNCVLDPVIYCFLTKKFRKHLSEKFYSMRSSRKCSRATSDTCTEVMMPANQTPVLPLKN
- Method Notes: Ability to block the effect of exogenously administered PAF upon intravenous administration in PAF-induced rat skin permeability assay
- Format: functional, organism-based
# label = y if ED50 < 6 µg/kg else n

[[record]]
substance_smiles = "Cc1ccc(C)c2c(C(=O)c3ccc(Cn4c(C)nc5cnccc54)cc3)c[nH]c12"
assayed_system = "UniProt:P46002"
class_label = "n"

[[record]]
substance_smiles = "C#Cc1cccc2c1c(C(=O)c1ccc(Cn3c(C)nc4cnccc43)cc1)cn2C(=O)N(C)C"
assayed_system = "UniProt:P46002"
class_label = "y"

[[record]]
substance_smiles = "Cc1nc2cnccc2n1Cc1ccc(C(=O)c2cn(C(=O)N(C)C)c3cccc(C(=O)N(C)C)c23)cc1"
assayed_system = "UniProt:P46002"
class_label = "n"

[[record]]
substance_smiles = "Cc1nc2cnccc2n1Cc1ccc(C(=O)c2cn(C(=O)N(C)C)c3cccc(OC(=O)N(C)C)c23)cc1"
assayed_system = "UniProt:P46002"
class_label = "y"

[[record]]
substance_smiles = "Cc1nc2cnccc2n1Cc1ccc(C(=O)c2cn(C(=O)N(C)C)c3cccc(OC(=O)N(C)C)c23)cc1F"
assayed_system = "UniProt:P46002"
class_label = "y"

[[record]]
substance_smiles = "CNC(=O)n1cc(C(=O)c2ccc(Cn3c(C)nc4cnccc43)cc2)c2c(C(=O)OC)cccc21"
assayed_system = "UniProt:P46002"
class_label = "n"

[[record]]
substance_smiles = "CCOCCn1cc(C(=O)c2ccc(Cn3c(C)nc4cnccc43)cc2)c2c(C(=O)OC)cccc21"
assayed_system = "UniProt:P46002"
class_label = "n"

[[record]]
substance_smiles = "COC(=O)c1cccc2c1c(C(=O)Cc1ccc(-n3c(C)nc4cnccc43)cc1)cn2C(=O)N(C)C"
assayed_system = "UniProt:P46002"
class_label = "y"

